- Tested on: Rhizoctonia cerealis
- ASSAY_NAME: Fungicidal activity, fungi growth rate method, RC
- Format: cell-based
- PROTOCOL_CONDITIONS: Ceratobasidium cereale; 50 μg/mL; read-out: Fungicidal activity, inhibition, RC
ENDPOINT_NAME: inhibition at 50 µg/mL

Endpoint output: inhibition at 50 µg/mL of Cc1nnsc1/C=C1\N=C(c2ccccc2)OC1=O . Value?
23%

Again, but for CONC(=O)/C(=C/c1ccccc1)NC(=O)c1ccccc1
10%

Again, but for COc1ccc(C(=O)N/C(=C\c2ccccc2)C(=O)N2CCC(O)(c3ccc(Br)cc3)CC2)cc1
7%

Again, but for CC(C)(C)OC(=O)N1CCC(c2nc(/C=C3\N=C(c4ccccc4)OC3=O)cs2)CC1
24%

Again, but for O=C(NCc1ccccc1Br)/C(=C/c1ccccc1)NC(=O)c1ccccc1
18%

Again, but for O=C(N/C(=C\c1ccccc1C(F)(F)F)C(=O)N1CCC(O)(c2ccc(Br)cc2)CC1)c1ccccc1
26%

Again, but for O=C(N/C(=C\c1ccccc1)C(=O)N1CCC(O)(c2ccc(Br)cc2)CC1)c1ccc(C(F)(F)F)cc1
11%

Again, but for Cc1snnc1/C=C1\N=C(c2ccccc2)OC1=O
18%

Again, but for COC(=O)[C@H](C)NC(=O)/C(=C/c1ccccc1)NC(=O)c1ccccc1
3%

Again, but for O=C(OCc1ccc(Br)cc1)/C(=C/c1ccccc1)NC(=O)c1ccccc1
13%

Again, but for O=C(N/C(=C\c1ccccc1)C(=O)N1CCC(O)CC1)c1ccccc1
13%

Again, but for O=C(NCc1ccc(Cl)cc1)/C(=C/c1ccccc1)NC(=O)c1ccccc1
17%

Again, but for O=C(N/C(=C\c1ccc(F)cc1)C(=O)N1CCC(O)(c2ccc(Br)cc2)CC1)c1ccccc1
10%

Again, but for COc1ccc(/C=C(\NC(=O)c2ccccc2)C(=O)N2CCC(O)(c3ccc(Br)cc3)CC2)cc1
13%

Again, but for CC(C)(C)OC(=O)N1CCC(c2nc(/C=C(\NC(=O)c3ccccc3)C(=O)O)cs2)CC1
44%

Again, but for COC(=O)CCCNC(=O)/C(=C/c1ccccc1)NC(=O)c1ccccc1
16%

Again, but for Cc1snnc1/C=C(\NC(=O)c1ccccc1)C(=O)N1CCC(O)(c2ccc(Br)cc2)CC1
62%

Again, but for O=C(NC1CC1)/C(=C/c1ccccc1)NC(=O)c1ccccc1
3%

Again, but for Cc1snnc1/C=C(\NC(=O)c1ccccc1)C(=O)O
18%

Again, but for COc1ccc(CNC(=O)/C(=C/c2ccccc2)NC(=O)c2ccccc2)cc1
17%

Again, but for O=C(N/C(=C\c1ccc(C(F)(F)F)cc1)C(=O)N1CCC(O)(c2ccc(Br)cc2)CC1)c1ccccc1
19%

Again, but for Cc1nnsc1/C=C(\NC(=O)c1ccccc1)C(=O)N1CCC(O)(c2ccc(Br)cc2)CC1
23%

Again, but for O=C(N/C(=C\c1ccccc1)C(=O)N1CCC(O)(c2ccc(Br)cc2)CC1)c1ccc(Cl)cc1
18%

Again, but for COC(=O)[C@H]1CCCN1C(=O)/C(=C/c1ccccc1)NC(=O)c1ccccc1
13%

Again, but for O=C(N/C(=C\c1ccccc1)C(=O)N1CCC(O)(c2ccc(Br)cc2)CC1)c1ccc(F)cc1
51%

Again, but for O=C(N/C(=C\c1cccc(C(F)(F)F)c1)C(=O)N1CCC(O)(c2ccc(Br)cc2)CC1)c1ccccc1
24%
